Test: Pharmacokinetic parameters in male Sprague Dawley rats (intravenous and oral administration)
Format: in vivo
Conditions: male, Sprague Dawley; intravenous administration, rat plasma; dose per compound (mg/kg); read-out: Vdss
assay metric: Vd (L/kg)

{"smiles string": "CN(C)CCn1ccc(S(=O)(=O)NC(=O)Nc2c3c(cc4c2CCC4)CCC3)n1", "Vd (L/kg)": 0.38}

(1) CN(C)CC(C)(C)n1ccc(S(=O)(=O)NC(=O)Nc2c3c(cc4c2CCC4)CCC3)n1
(2) CN1CC[C@H]1Cn1ccc(S(=O)(=O)NC(=O)Nc2c3c(cc4c2CCC4)CCC3)n1
Task item: Identify the entry with the larger Vd. Options: 1 and 2 Answer format: the label of the selected item.
Reply: 2
(2: 0.32 L/kg, 1: 0.18 L/kg)
